Biological target: ENL YEATS domain (6×HIS ENL YEATS Domain) binding to H3K9cr peptide (Homo sapiens, UniProt Q03111)
Sequence (Q03111 1-150): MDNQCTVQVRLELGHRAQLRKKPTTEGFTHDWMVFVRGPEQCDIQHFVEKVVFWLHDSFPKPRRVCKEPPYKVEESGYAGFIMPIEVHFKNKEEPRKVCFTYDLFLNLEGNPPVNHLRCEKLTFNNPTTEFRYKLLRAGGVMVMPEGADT
property.name: pIC50
Answer as the number alone; pIC50 is minus log10 of concentration in mol/L.

C[C@H]1CCCN1Cc1cc2cnc(NC(=O)c3ccc4ncccc4c3)cc2[nH]1 [Example 15] ... 6.58

Returns the measured pIC50 for the input compound. Input: C[C@H]1CCCN1Cc1cc2cnc(NC(=O)c3ccc4c(c3)[nH]c(=O)n4C)cc2[nH]1 [Example 93] 7.01

Returns the measured pIC50 for the input compound. Input: C[C@H]1CCCN1Cc1cc2cnc(NC(=O)c3ccc(-c4ccn(C)n4)cc3F)cc2[nH]1 [Example 32] 5.85

Returns the measured pIC50 for the input compound. Input: C[C@H]1CCCN1Cc1cc2cnc(NC(=O)c3ccc(-c4cn[nH]c4)cc3)cc2[nH]1 [Example 42] 6.79

Returns the measured pIC50 for the input compound. Input: C[C@H]1CCCN1Cc1cc2cnc(NC(=O)c3ccc4c(c3)CNC(=O)C4)cc2[nH]1 [Example 26] 6.36

Returns the measured pIC50 for the input compound. Input: C[C@H]1CCCN1Cc1cc2cnc(NC(=O)c3ccc4c(c3)CCCN4C)cc2[nH]1 [Example 40] 5.60

Returns the measured pIC50 for the input compound. Input: C[C@H]1CCCN1Cc1cc2cnc(NC(=O)c3ccc4c(cnn4-c4ccncc4)c3)cc2[nH]1 [Example 37] 6.62

Returns the measured pIC50 for the input compound. Input: CC(c1ccc(C(=O)Nc2cc3[nH]c(CN4CCC[C@@H]4C)cc3cn2)cc1)c1cccnc1 (some centres unmarked) [compound 30] 6.12

Returns the measured pIC50 for the input compound. Input: Cc1nn(C)c2ccc(C(=O)Nc3cc4[nH]c(CN5CCC[C@@H]5C)cc4cn3)cc12 [Example 6] 6.88

Where these numbers come from: patent US20230027198A1
